- System: rats that exhibited ectopic firing (left saphenous nerve)
- assayComment: Suppression of ectopic firing in rats with cut saphenous nerve
- Format: in vivo
- runConditions: rat, urethane anesthesia, administration via catheter in right cervical vein; number of firings every 10 seconds; read-out: Suppressing activity on ectopic firing, ED50

{"molecule": "O=c1n(CCCN2[C@@H]3CC[C@H]2C[C@@H](CCc2ccccc2F)C3)nc2ccccn12", "testedTarget": "rats that exhibited ectopic firing (left saphenous nerve)", "resultOperator": "=", "ED50, mg/kg": 0.15}
{"molecule": "Cc1nn(C[C@H](F)CN2C3CCC2CC(OCc2cccc(F)c2)C3)c(=O)n1C (stereo partly shown)", "testedTarget": "rats that exhibited ectopic firing (left saphenous nerve)", "resultOperator": "=", "ED50, mg/kg": 0.14}
{"molecule": "Cc1nc(=O)n(C[C@@H](F)CN2C3CCC2CC(OCc2ccc(F)cc2)C3)c(=O)n1C (stereo partly shown)", "testedTarget": "rats that exhibited ectopic firing (left saphenous nerve)", "resultOperator": "=", "ED50, mg/kg": 0.28}
{"molecule": "Cc1cccc(COC2CC3CCC(C2)N3CC(F)Cn2nc(N(C)C)n(C)c2=O)c1 (stereo not shown)", "testedTarget": "rats that exhibited ectopic firing (left saphenous nerve)", "resultOperator": "<", "ED50, mg/kg": 0.1}

---

- Test system: rats that exhibited ectopic firing (left saphenous nerve)
- assayComment: Suppression of ectopic firing in rats with cut saphenous nerve
- Type: in vivo
- runConditions: rat, urethane anesthesia, administration via catheter in right cervical vein; number of firings every 10 seconds; read-out: Suppressing activity on ectopic firing, ED50
ED50 vs 0.2 mg/kg: less than gives class 1; not less than gives class 0.

{"compound": "Cc1nc(C)n(C)c(=O)c1CCN1[C@@H]2CC[C@H]1C[C@@H](OCc1ccccc1F)C2", "class": "class 1"}
{"compound": "COC(CN1[C@@H]2CC[C@H]1C[C@@H](OCc1ccccc1F)C2)Cn1nc2ccccn2c1=O (stereo partly drawn)", "class": "class 0"}
{"compound": "O=c1nc2n(c(=O)n1CCCN1[C@@H]3CC[C@H]1C[C@@H](CCc1ccccc1F)C3)CCCC2", "class": "class 1"}
{"compound": "CN1CCn2c1nn(CC(F)CN1[C@@H]3CC[C@H]1C[C@@H](OCc1ccc(F)cc1)C3)c2=O (stereo partly drawn)", "class": "class 0"}
{"compound": "Cc1nc2ccccn2c(=O)c1CCN1[C@@H]2CC[C@H]1C[C@@H](OCc1ccccc1F)C2", "class": "class 1"}
{"compound": "O=c1n(CCCN2[C@@H]3CC[C@H]2C[C@@H](OCc2ccccc2F)C3)nc2ccccn12", "class": "class 0"}
{"compound": "Cc1nn(C[C@H](F)CN2[C@@H]3CC[C@H]2C[C@@H](OCc2ccccc2F)C3)c(=O)n1C", "class": "class 0"}
{"compound": "Cc1nn(C[C@H](F)CN2C3CCC2CC(OCc2ccccc2CF)C3)c(=O)n1C (stereo partly drawn)", "class": "class 0"}
{"compound": "O=c1n(CCCN2[C@@H]3CC[C@H]2C[C@@H](OCc2ccccc2F)C3)nc2n1CCS2", "class": "class 1"}
{"compound": "Cc1cc(-n2c(C)nn(CC(O)CN3[C@@H]4CC[C@H]3C[C@@H](OCc3ccccc3F)C4)c2=O)on1 (stereo partly drawn)", "class": "class 1"}
{"compound": "Cn1ccn2c(=O)n(CCCN3[C@@H]4CC[C@H]3C[C@@H](OCc3ccccc3F)C4)c(=O)nc12", "class": "class 0"}
{"compound": "O=c1n(-c2ccccc2)cnn1CCCN1[C@@H]2CC[C@H]1C[C@@H](OCc1ccccc1F)C2", "class": "class 1"}
